system: redroot pigweed (Amaranthus retroflexus, AMARE); test: Pre-emerge greenhouse herbicide test; format: in vivo; conditions: 250 g ai/ha, 14 days after application, scale 0-100 (0 no damage, 100 complete death)
readoutLabel: Pre-emerge Herbicidal Activity AMARE (phytotoxicity rating)
Quick one: just the number, no unit, thanks!

| compound | targetDesc | readoutValue |
| --- | --- | --- |
| CCc1nc2c(-n3c(=O)n4n(c3=S)CCC=C4)c(F)cc(Cl)c2o1 | redroot pigweed (Amaranthus retroflexus, AMARE) | 100 |
| CCc1nc2c(N3C(=O)C4CCCCN4C3=O)c(F)cc(Cl)c2o1 (stereo not drawn) | redroot pigweed (Amaranthus retroflexus, AMARE) | 100 |
| CC1Oc2c(Cl)cc(F)c(-c3nn(C)c(OC(F)F)c3Cl)c2NC1=O (stereo not drawn) | redroot pigweed (Amaranthus retroflexus, AMARE) | 100 |
| Cn1c(C(F)(F)F)cc(=O)n(-c2c(F)cc(Cl)c3c2NC(=O)CO3)c1=O | redroot pigweed (Amaranthus retroflexus, AMARE) | 100 |
| Cn1c(C(F)(F)F)cc(=O)n(-c2c(F)cc(Cl)c3c2N=C(c2ccccc2)CO3)c1=O | redroot pigweed (Amaranthus retroflexus, AMARE) | 100 |

get_value(item= COC(=O)CC1CNc2c(c(Cl)cc(F)c2-n2c(=O)cc(C(F)(F)F)n(C)c2=O)O1 (stereo not drawn) , readout=Pre-emerge Herbicidal Activity AMARE (phytotoxicity rating)) returns 100

get_value(item= `Nn1c(C(F)(F)F)cc(=O)n(-c2c(F)cc(Cl)c3c2NC(=O)CO3)c1=O` , readout=Pre-emerge Herbicidal Activity AMARE (phytotoxicity rating)) returns 100

get_value(item= `Cc1nc2c(-n3c(=O)cc(C(F)(F)F)n(C)c3=O)c(F)cc(Cl)c2oc1=O` , readout=Pre-emerge Herbicidal Activity AMARE (phytotoxicity rating)) returns 60

get_value(item= CC1Oc2c(Cl)cc(F)c(-n3c(=O)cc(C(F)(F)F)n(C)c3=O)c2NC1=O (stereo not drawn) , readout=Pre-emerge Herbicidal Activity AMARE (phytotoxicity rating)) returns 100

get_value(item= `Cc1nc2c(-n3ncc(C(F)(F)F)cc3=O)c(F)cc(Cl)c2o1` , readout=Pre-emerge Herbicidal Activity AMARE (phytotoxicity rating)) returns 100

get_value(item= CCc1nc2c(N3C(=O)C4CCCCN4C3=S)c(F)cc(Cl)c2o1 (single isomer, unassigned) , readout=Pre-emerge Herbicidal Activity AMARE (phytotoxicity rating)) returns 50

get_value(item= `CCOC(=O)c1nc2c(-n3c(=O)cc(C(F)(F)F)n(C)c3=O)c(F)cc(Cl)c2oc1=O` , readout=Pre-emerge Herbicidal Activity AMARE (phytotoxicity rating)) returns 50

====

system: sicklepod (Cassia obtusifolia, CASOB); test: Post-emerge greenhouse herbicide test; assay type: in vivo; conditions: 250 g ai/ha, 14 days after application
Binary call on Post-emerge Herbicidal Activity CASOB (phytotoxicity rating 0-100): Satisfied from 90 upward, Not satisfied beneath that.

Study these solved cases before continuing.
| compound | targetDesc | assignedClass |
| --- | --- | --- |
| CC1Oc2c(Cl)cc(F)c(-c3nn(C)c(OC(F)F)c3Cl)c2NC1=O (stereo not drawn) | sicklepod (Cassia obtusifolia, CASOB) | Satisfied |
| COC(=O)CC1CNc2c(c(Cl)cc(F)c2-n2c(=O)cc(C(F)(F)F)n(C)c2=O)O1 (stereo not drawn) | sicklepod (Cassia obtusifolia, CASOB) | Not satisfied |
| CCOC(=O)c1nc2c(-n3c(=O)cc(C(F)(F)F)n(C)c3=O)c(F)cc(Cl)c2oc1=O | sicklepod (Cassia obtusifolia, CASOB) | Not satisfied |
| CCc1nc2c(-n3c(=O)n4n(c3=S)CCC=C4)c(F)cc(Cl)c2o1 | sicklepod (Cassia obtusifolia, CASOB) | Satisfied |
| Cn1c(C(F)(F)F)cc(=O)n(-c2c(F)cc(Cl)c3c2N=C(c2ccccc2)CO3)c1=O | sicklepod (Cassia obtusifolia, CASOB) | Not satisfied |
| Cc1nc2c(-n3ncc(C(F)(F)F)cc3=O)c(F)cc(Cl)c2o1 | sicklepod (Cassia obtusifolia, CASOB) | Not satisfied |
| Cc1nc2c(-n3c(=O)cc(C(F)(F)F)n(C)c3=O)c(F)cc(Cl)c2oc1=O | sicklepod (Cassia obtusifolia, CASOB) | Not satisfied |
| CC1Oc2c(Cl)cc(F)c(-n3c(=O)cc(C(F)(F)F)n(C)c3=O)c2NC1=O (stereo not drawn) | sicklepod (Cassia obtusifolia, CASOB) | Satisfied |
| CCc1nc2c(N3C(=O)C4CCCCN4C3=S)c(F)cc(Cl)c2o1 (single isomer, unassigned) [Compound 7-6] | sicklepod (Cassia obtusifolia, CASOB) | Not satisfied |
| CCc1nc2c(N3C(=O)C4CCCCN4C3=S)c(F)cc(Cl)c2o1 (single isomer, unassigned) [Compound 7-5] | sicklepod (Cassia obtusifolia, CASOB) | Satisfied |

Attention now turns to another entry.
Query: Is Post-emerge Herbicidal Activity CASOB (phytotoxicity rating 0-100) at least 90? Consider `Cn1c(C(F)(F)F)cc(=O)n(-c2c(F)cc(Cl)c3c2NC(=O)CO3)c1=O`
Result: Not satisfied

====

Recorded Post-emerge crop damage RICE (phytotoxicity rating 0-100) by entry
tested on: upland rice (Ory0a sp., var.Tebonnet, RICE); assay: Post-emerge greenhouse crop damage test; format: in vivo; details: var. Tebonnet, upland rice (Ory0a sp.), in vivo, 14 days
Quick one: just the number, no unit, thanks!

get_value(item= CC1Oc2c(Cl)cc(F)c(-n3c(=O)cc(C(F)(F)F)n(C)c3=O)c2NC1=O (stereo not shown) [Compound 4-3] , readout=Post-emerge crop damage RICE (phytotoxicity rating 0-100)) returns 80

get_value(item= Cn1c(C(F)(F)F)cc(=O)n(-c2ccc(Cl)c3ccccc23)c1=O [Compound 5-1] , readout=Post-emerge crop damage RICE (phytotoxicity rating 0-100)) returns 0

====

tested on: soybean (Glycine max L., var. Pella 86, SOY); test: Pre-emerge greenhouse crop damage test; format: in vivo; conditions: var. Pella 86, soybean (Glycine max L.), in vivo, 14 days
readoutLabel: Pre-emerge Herbicidal Activity SOY (crop damage rating)

| compound | readoutValue |
| --- | --- |
| Cc1nc2c(-n3c(=O)cc(C(F)(F)F)n(C)c3=O)c(F)cc(Cl)c2oc1=O | 0 |
| CC1Oc2c(Cl)cc(F)c(-n3c(=O)cc(C(F)(F)F)n(C)c3=O)c2NC1=O (stereo not shown) | 100 |
| Cn1c(C(F)(F)F)cc(=O)n(-c2c(F)cc(Cl)c3c2N=C(c2ccccc2)CO3)c1=O | 0 |
| CCc1nc2c(-n3c(=O)n4n(c3=S)CCC=C4)c(F)cc(Cl)c2o1 | 60 |
| COC(=O)CC1CNc2c(c(Cl)cc(F)c2-n2c(=O)cc(C(F)(F)F)n(C)c2=O)O1 (stereo not shown) | 100 |

Record `Cn1c(C(F)(F)F)cc(=O)n(-c2c(F)cc(Cl)c3c2NCCO3)c1=O` / soybean (Glycine max L., var. Pella 86, SOY), Pre-emerge Herbicidal Activity SOY (crop damage rating) recorded as 50

Record `Cn1c(C(F)(F)F)cc(=O)n(-c2ccc(Cl)c3ccccc23)c1=O` / soybean (Glycine max L., var. Pella 86, SOY), Pre-emerge Herbicidal Activity SOY (crop damage rating) recorded as 70

====

tested on: upland rice (Ory0a sp., var.Tebonnet, RICE); assay: Post-emerge greenhouse crop damage test; format: in vivo; settings: var. Tebonnet, upland rice (Ory0a sp.), in vivo, 14 days
readoutLabel: Post-emerge crop damage RICE (phytotoxicity rating 0-100)
Quick one: just the number, no unit, thanks!

| molecule | targetDesc | readoutValue |
| --- | --- | --- |
| Cc1nc2c(-n3c(=O)cc(C(F)(F)F)n(C)c3=O)c(F)cc(Cl)c2oc1=O | upland rice (Ory0a sp., var.Tebonnet, RICE) | 0 |
| CCc1nc2c(-n3c(=O)n4n(c3=S)CCC=C4)c(F)cc(Cl)c2o1 | upland rice (Ory0a sp., var.Tebonnet, RICE) | 80 |
| Cn1c(C(F)(F)F)cc(=O)n(-c2c(F)cc(Cl)c3c2N=C(c2ccccc2)CO3)c1=O | upland rice (Ory0a sp., var.Tebonnet, RICE) | 20 |
| COC(=O)CC1CNc2c(c(Cl)cc(F)c2-n2c(=O)cc(C(F)(F)F)n(C)c2=O)O1 (centres unmarked) | upland rice (Ory0a sp., var.Tebonnet, RICE) | 90 |

get_value(item= `Cn1c(C(F)(F)F)cc(=O)n(-c2c(F)cc(Cl)c3c2NCCO3)c1=O` , readout=Post-emerge crop damage RICE (phytotoxicity rating 0-100)) returns 40
